Test system: ACHN renal
measurement-protocol: NCI tumour cell line growth inhibition, 48 h
endpoint: TGI

>>> result("O=C1C(C=NC(=S)c2ccccc2)=C(O)c2ccccc21")
"> 100 µM"
>>> result("O=C(OCC1OC(n2cc(C(F)(F)F)c(=O)[nH]c2=O)CC1OC(=O)c1ccc([N+](=O)[O-])cc1)c1ccc([N+](=O)[O-])cc1 (centres undefined)")
"> 100 µM"
>>> result("COc1ccc(-c2nc(Sc3c([N+](=O)[O-])ncn3C)n[nH]2)cc1")
"23.1 µM"
>>> result("Cc1ccc(O)c(C2=CC3=NNC(=O)C3C(c3cccc(Br)c3)C2)c1 (centres undefined)")
"> 75 µM"
>>> result("Nc1nc(N)c2ncn(CCCC(c3ccccc3)P(=O)(O)O)c2n1 (centres undefined)")
"> 100 µM"
>>> result("COc1ccc2c(c1)[n+](=O)c(C(=O)CC(=O)C(=O)Nc1cccc(Cl)c1C)c(C)n2[O-]")
"> 100 µM"
>>> result("O=C1C2c3[nH]c4ccccc4c3C3CCCCC3C2C(=O)N1c1ccccc1 (centres undefined)")
"> 100 µM"
>>> result("Cc1cc(Cl)ccc1OCc1nn2c(CCCCc3nnc4sc(COc5ccc(Cl)cc5C)nn34)nnc2s1")
"> 100 µM"
>>> result("O=C(O)c1ccc(NCc2nc3cc(Cl)c(Cl)cc3[nH]2)cc1")
"> 100 µM"

###

System: SN12C renal
measurement-protocol: NCI tumour cell line growth inhibition, 48 h; in the data active means GI50 below about 0.43 µM; inactive means the rest
Classes used: Yes for active, No for inactive

>>> cat("CC(C)N(CCCNC(=O)Nc1ccc(C(C)(C)C)cc1)C[C@H]1O[C@@H](n2ccc3c(N)ncnc32)[C@H](O)[C@@H]1O")
"No"
>>> cat("O=C(Nc1ccc(Cl)cc1)Nc1ccc(Cl)c(C(F)(F)F)c1")
"No"
>>> cat("CC(=O)NC1C(OCc2ccccc2)OC(CO)C(O)C1OC(C)C(=O)NC(C)C(=O)N[C@@H](CCC(=O)OCCCNC1c2ccccc2Nc2cccc([N+](=O)[O-])c21)C(N)=O (stereo partly drawn)")
"Yes"

###

Test system: MDA-MB-435
measurement-protocol: NCI tumour cell line growth inhibition, 48 h
endpoint: TGI

>>> result("CCc1n[nH]c(=O)n1O")
"> 100 µM"
>>> result("Cc1nc2cc(-c3nn(C(C)C)c4ncnc(N)c34)ccc2o1")
"0.0982 µM"
>>> result("COc1cc(-c2nc3ccc(N4CCN(C)CC4)cc3[nH]2)c(OC)c2[nH]c(CO)nc12")
"> 100 µM"
>>> result("CC1(C)CC[C@]2(C(=O)Nc3ccccn3)CC[C@]3(C)C(=CC[C@@H]4[C@@]5(C)C/C(=C/c6ccncc6)C(=O)C(C)(C)[C@@H]5CC[C@]43C)[C@@H]2C1")
"> 100 µM"
>>> result("CCn1c(=O)c2cn[nH]c2n(C)c1=O")
"> 100 µM"
>>> result("Cc1nc2c(=O)[nH]ncc2[nH]1")
"> 100 µM"
>>> result("O=NN1CCNC1Cc1ccccc1 (stereo not given)")
"> 100 µM"
>>> result("C#CC[C@@H]1C[C@]2(C)[C@H]3CC[C@@H]4[C@H]5C(C(=C)C)CC[C@]5(C(=O)NCCCCN)CC[C@@]4(C)[C@]3(C)CC[C@H]2C(C)(C)[C@H]1OC(C)=O (stereo not given in full)")
"3.19 µM"
>>> result("Cc1cc(Cl)ccc1OCc1nn2c(CCCCc3nnc4sc(COc5ccc(Cl)cc5C)nn34)nnc2s1")
"> 57.8 µM"
>>> result("CC(=O)OCC1OC(Nc2ccc3nc(C)n(-c4ccccc4)c(=O)c3c2)C(OC(C)=O)C(OC(C)=O)C1OC(C)=O (stereo not given)")
"> 50 µM"
